Lab note: pIC50 readings collected with PIK3CD (Human) (UniProt O00329) for the following compounds.
Sequence (O00329 whole entry, looked up): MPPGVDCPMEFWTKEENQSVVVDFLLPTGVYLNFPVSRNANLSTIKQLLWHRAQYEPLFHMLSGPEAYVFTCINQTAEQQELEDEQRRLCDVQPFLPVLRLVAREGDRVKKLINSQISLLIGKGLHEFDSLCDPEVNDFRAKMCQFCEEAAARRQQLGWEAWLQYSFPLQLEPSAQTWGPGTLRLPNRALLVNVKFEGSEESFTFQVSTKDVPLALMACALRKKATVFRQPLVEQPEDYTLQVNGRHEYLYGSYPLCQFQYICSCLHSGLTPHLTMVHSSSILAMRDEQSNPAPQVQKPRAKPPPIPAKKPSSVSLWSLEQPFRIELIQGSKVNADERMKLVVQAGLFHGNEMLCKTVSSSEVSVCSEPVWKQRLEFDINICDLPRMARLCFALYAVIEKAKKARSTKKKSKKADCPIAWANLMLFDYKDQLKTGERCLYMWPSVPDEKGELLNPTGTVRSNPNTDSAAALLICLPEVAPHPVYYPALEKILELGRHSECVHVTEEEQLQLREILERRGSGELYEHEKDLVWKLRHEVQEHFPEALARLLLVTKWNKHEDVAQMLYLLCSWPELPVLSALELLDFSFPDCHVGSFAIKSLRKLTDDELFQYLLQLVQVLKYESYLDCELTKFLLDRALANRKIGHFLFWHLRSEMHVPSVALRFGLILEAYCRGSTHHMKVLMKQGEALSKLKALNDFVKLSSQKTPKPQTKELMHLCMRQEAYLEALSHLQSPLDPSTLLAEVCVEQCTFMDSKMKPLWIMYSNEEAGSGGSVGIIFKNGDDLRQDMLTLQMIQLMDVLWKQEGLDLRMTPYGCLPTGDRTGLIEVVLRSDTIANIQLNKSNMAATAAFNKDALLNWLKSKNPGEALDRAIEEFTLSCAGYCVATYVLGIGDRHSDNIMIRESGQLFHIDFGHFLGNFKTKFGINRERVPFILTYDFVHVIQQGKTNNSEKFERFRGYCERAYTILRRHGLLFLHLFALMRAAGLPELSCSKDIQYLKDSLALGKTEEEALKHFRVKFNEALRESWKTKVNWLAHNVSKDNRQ
pIC50: −log10 of the molar value.
observable: pIC50

[[record]]
smi = "Cc1ccn2nc([C@H](C)Nc3ncnc(N)c3C#N)nc(N[C@@H](Cc3ccc(O)cc3)C(N)=O)c12"
valuemeasured = 7.84


[a] Cc1ccn2nc(Cn3nc(-c4cc(O)cc(F)c4)c4c(N)ncnc43)nc(OCCN3CCCC3=O)c12
[b] CN[C@H]1CCCC[C@@H]1N(C)c1nc([C@H](C)Nc2ncnc(N)c2C#N)nn2ccc(C)c12
Q: // compare measured pIC50, left a , right b , return larger # reply format: chosen label
Ans: a

---

target: PIK3CD (Human) (UniProt O00329)
pIC50: −log10 of the molar value.
observable: pIC50

Observe how each entry below is paired with its result.
[[record]]
smi = "Cc1ccn2nc([C@H](C)Nc3ncnc4[nH]cc(C#N)c34)nc(N(CCN(C)C)c3cccc(O)c3)c12"
observable = "pIC50"
valuemeasured = 9.00

[[record]]
smi = "COc1ncc(-c2c[nH]c3ncnc(N[C@@H](C)c4nc(N5C[C@@H](C)O[C@@H](C)C5)c5c(C)ccn5n4)c23)cc1NS(C)(=O)=O"
observable = "pIC50"
valuemeasured = 9.30

[[record]]
smi = "Cc1ccn2nc(Cn3nc(-c4cc(O)cc(F)c4)c4c(N)ncnc43)nc(N3CCC(C(N)=O)CC3)c12"
observable = "pIC50"
valuemeasured = 8.55

[[record]]
smi = "Cc1ccn2nc([C@H](C)Nc3ncnc(N)c3C#N)nc(N(CCN3CCOCC3)c3cccc(O)c3)c12"
observable = "pIC50"
valuemeasured = 7.89

[[record]]
smi = "Cc1ccn2nc(Cn3nc(-c4cc(O)cc(F)c4)c4c(N)ncnc43)nc(OCCN3CCOCC3)c12"
observable = "pIC50"
valuemeasured = 9.10


[I] Cc1ccn2nc(Cn3nc(-c4cc(O)cc(F)c4)c4c(N)ncnc43)nc(NCCN3CCCC3)c12
[II] Cc1ccn2nc(Cn3nc(-c4cc(O)cc(F)c4)c4c(N)ncnc43)nc(N3CCS(=O)(=O)CC3)c12
Q: // compare measured pIC50, left I , right II , return larger # reply format: chosen label
Ans: I
(I: 8.96, II: 8.60)

---

Lab note: IC50 readings collected with PIK3CD (Human) for the following compounds.
observable: IC50 (nM)

Observe how each entry below is paired with its result.
[[record]]
smi = "CCOC(=O)C1CCN(CCOc2nc(Cn3nc(-c4cc(O)cc(F)c4)c4c(N)ncnc43)nn3ccc(C)c23)CC1"
observable = "IC50"
unitssymbol = "nM"
valuemeasured = 1.2

[[record]]
smi = "Cc1ccn2nc([C@H](C)Nc3ncnc(N)c3C#N)nc(N3CCC(CN4CCCC4)CC3)c12"
observable = "IC50"
unitssymbol = "nM"
valuemeasured = 6.2


[P] Cc1ccn2nc([C@H](C)Nc3ncnc(N)c3C#N)nc(-c3ccc(O)c(C(C)(C)O)c3)c12
[Q] Cc1cc(C(=O)NCc2ccc(S(N)(=O)=O)cc2)cc(-c2nc([C@H](C)Nc3ncnc(N)c3C#N)nn3cccc23)c1
[R] Cc1cc(N(C)C)cc(C2CCN(c3cc(-c4nc([C@H](C)Nc5ncnc(N)c5C#N)nn5ccc(C)c45)ccn3)CC2)n1
Q: Number of compounds to sort: 3. Sort criterion: IC50, ascending. Response field: labels, in requested order.
Ans: R, P, Q
